# maps each entry to its Ratio
measuredOn: ATP-dependent translocase ABCB1 (Homo sapiens)
Sequence (P08183 whole entry): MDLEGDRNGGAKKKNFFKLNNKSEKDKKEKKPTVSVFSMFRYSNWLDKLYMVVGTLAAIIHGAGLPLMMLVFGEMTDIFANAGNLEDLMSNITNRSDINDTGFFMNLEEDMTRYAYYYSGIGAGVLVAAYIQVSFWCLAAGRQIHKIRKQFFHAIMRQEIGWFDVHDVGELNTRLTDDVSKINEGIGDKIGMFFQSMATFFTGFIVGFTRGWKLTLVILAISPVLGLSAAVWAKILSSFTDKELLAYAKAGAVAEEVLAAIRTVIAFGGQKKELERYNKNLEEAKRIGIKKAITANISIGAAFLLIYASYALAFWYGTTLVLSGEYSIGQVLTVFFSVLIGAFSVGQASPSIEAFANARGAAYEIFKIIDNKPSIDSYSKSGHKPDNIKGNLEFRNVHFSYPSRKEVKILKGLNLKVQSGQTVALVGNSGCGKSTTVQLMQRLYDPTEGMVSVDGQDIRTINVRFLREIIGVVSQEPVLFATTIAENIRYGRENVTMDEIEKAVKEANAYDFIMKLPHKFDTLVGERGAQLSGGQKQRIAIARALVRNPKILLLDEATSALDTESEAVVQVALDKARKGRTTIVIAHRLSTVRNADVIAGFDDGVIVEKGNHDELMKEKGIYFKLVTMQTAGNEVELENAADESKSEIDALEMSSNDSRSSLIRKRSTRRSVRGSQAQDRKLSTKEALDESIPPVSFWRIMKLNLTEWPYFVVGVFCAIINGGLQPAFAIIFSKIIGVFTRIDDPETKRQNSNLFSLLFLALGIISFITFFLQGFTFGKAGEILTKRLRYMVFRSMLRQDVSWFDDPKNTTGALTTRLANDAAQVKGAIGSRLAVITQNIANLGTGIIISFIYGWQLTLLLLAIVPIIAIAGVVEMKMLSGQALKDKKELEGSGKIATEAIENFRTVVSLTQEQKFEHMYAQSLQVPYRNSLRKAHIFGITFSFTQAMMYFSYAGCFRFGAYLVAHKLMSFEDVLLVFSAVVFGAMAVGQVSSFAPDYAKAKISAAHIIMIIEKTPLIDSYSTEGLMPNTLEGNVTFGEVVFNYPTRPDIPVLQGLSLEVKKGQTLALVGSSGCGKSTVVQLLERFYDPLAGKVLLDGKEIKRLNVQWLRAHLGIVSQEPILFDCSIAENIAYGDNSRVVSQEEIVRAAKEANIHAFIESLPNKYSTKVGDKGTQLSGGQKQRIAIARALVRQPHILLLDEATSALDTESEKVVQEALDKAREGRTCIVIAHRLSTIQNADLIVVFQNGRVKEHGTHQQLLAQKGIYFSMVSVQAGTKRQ
assayText: Modulation of ABCB1 (unknown origin) expressed in human COLO320 cells co-expressing LRP assessed as fluorescence activity ratio at 2 uM pretreated for 10 mins followed by rhodamine 123 addition and measured after 20 mins by flow cytometry (reference value: 0.79)
Assay type: cell-based
Respond using a number only.

Record excerpt, results attached:
>  <compound>
CC1=C2C=C3CC[C@@H]4C(C)(C)[C@@H](O)CC[C@@]4(C)[C@@H]3C[C@H]2OC1=O [HELIOSCOPINOLIDE B]

>  <numericReadout>
1.73

$$$$
>  <compound>
CC1(C)CC[C@]2(C(=O)O)CC[C@]3(C)C(=CC[C@@H]4[C@@]5(C)CC[C@H](O)C(C)(C)[C@@H]5CC[C@]43C)[C@@H]2C1 [OLEANOLIC_ACID]

>  <numericReadout>
2.1

$$$$

Sample C=C(CC[C@@H](C)[C@H]1CC[C@@]2(C)C(=O)[C@@]3(CC[C@]12C)[C@@H](O)C[C@H]1[C@H](C)[C@@H](O)CC[C@@]13C)C(C)C , system: ATP-dependent translocase ABCB1 (Homo sapiens). Its Ratio is 2.27

Sample CC[C@H](CC[C@@H](C)[C@H]1CC[C@H]2[C@@H]3CCC4=CC(=O)CC[C@]4(C)[C@H]3CC[C@]12C)C(C)C , system: ATP-dependent translocase ABCB1 (Homo sapiens). Its Ratio is 0.97

Sample C=C(C)[C@H](O)CC[C@@H](C)[C@H]1CC[C@@]2(C)[C@@H]3CC[C@H]4C(C)(C)[C@@H](O)CC[C@@]45C[C@@]35CC[C@]12C , system: ATP-dependent translocase ABCB1 (Homo sapiens). Its Ratio is 0.77

Sample CC1=C2C=C3CC[C@@H]4C(C)(C)C(=O)CC[C@@]4(C)[C@@H]3C[C@H]2OC1=O [HELIOSCOPINOLIDE E] , system: ATP-dependent translocase ABCB1 (Homo sapiens). Its Ratio is 0.44

Sample C[C@H](C/C=C/C(C)(C)O)[C@H]1CC[C@@]2(C)[C@@H]3CC[C@H]4C(C)(C)[C@@H](O)CC[C@@]45C[C@@]35CC[C@]12C , system: ATP-dependent translocase ABCB1 (Homo sapiens). Its Ratio is 1.26

Sample C=C(CC[C@@H](C)[C@H]1CC[C@@]2(C)C3=C(C(=O)C[C@]12C)[C@@]1(C)CC[C@H](O)[C@@H](C)[C@@H]1CC3=O)C(C)C , system: ATP-dependent translocase ABCB1 (Homo sapiens). Its Ratio is 1.09

----------
measuredOn: ATP-dependent translocase ABCB1 (Homo sapiens)
assayText: Modulation of ABCB1 (unknown origin) expressed in human COLO320 cells co-expressing LRP assessed as fluorescence activity ratio at 20 uM pretreated for 10 mins followed by rhodamine 123 addition and measured after 20 mins by flow cytometry (reference value: 0.79)
Assay type: cell-based
# maps each entry to its Ratio
Respond using a number only.

Record excerpt, results attached:
>  <compound>
CC1=C2C=C3CC[C@@H]4C(C)(C)[C@@H](O)CC[C@@]4(C)[C@@H]3C[C@H]2OC1=O [HELIOSCOPINOLIDE B]

>  <Ratio>
6.78

$$$$
>  <compound>
C=C(CC[C@@H](C)[C@H]1CC[C@@]2(C)C(=O)[C@@]3(CC[C@]12C)[C@@H](O)C[C@H]1[C@H](C)[C@@H](O)CC[C@@]13C)C(C)C

>  <Ratio>
8

$$$$
>  <compound>
CC1=C2C=C3CC[C@@H]4C(C)(C)C(=O)CC[C@@]4(C)[C@@H]3C[C@H]2OC1=O [HELIOSCOPINOLIDE E]

>  <Ratio>
0.98

$$$$
>  <compound>
CC[C@H](CC[C@@H](C)[C@H]1CC[C@H]2[C@@H]3CCC4=CC(=O)CC[C@]4(C)[C@H]3CC[C@]12C)C(C)C

>  <Ratio>
1.34

$$$$

Next:
The reported value for CC1(C)CC[C@]2(C(=O)O)CC[C@]3(C)C(=CC[C@@H]4[C@@]5(C)CC[C@H](O)C(C)(C)[C@@H]5CC[C@]43C)[C@@H]2C1 [OLEANOLIC_ACID] in terms of Ratio is 4.71
